# key: entry, value: Activity
test: Binding affinity to melanin in phosphate buffer solution; set-up: concentration or dose not given beside the values; settings: tested as the 125I-labelled form

{"structure-smiles-string": "CCN(CC)CCNC(=O)c1c[nH]c2ccc(I)cc2c1=O", "Activity": "59%"}
{"structure-smiles-string": "CCN(CC)CCNC(=O)c1ccc2cc(I)ccc2n1", "Activity": "43.2%"}
{"structure-smiles-string": "CCN(CC)CCNC(=O)c1cc2cc(I)ccc2[nH]1", "Activity": "43.1%"}
{"structure-smiles-string": "CCN(CC)CCNC(=O)c1ccc(I)nc1", "Activity": "3.5%"}
{"structure-smiles-string": "CCN(CC)CCNC(=O)c1cc2c(I)cccc2s1", "Activity": "56.1%"}

###

experiment: Ratio of drug level in tumor to lung of C57BL/6 mouse bearing mouse B16-F0 cells at 0.74 to 0.92 MBq, iv after 3 hrs; assay type: ADME, organism-based; settings: in vivo
# key: entry, value: Ratio

{"structure-smiles-string": "CCN(CC)CCNC(=O)c1cnc2cc([125I])ccc2n1.Cl.Cl", "Ratio": 4.87}
{"structure-smiles-string": "CCN(CC)CCNC(=O)c1cc2c([125I])cccc2cn1.Cl.Cl", "Ratio": 2.58}
{"structure-smiles-string": "CCN(CC)CCNC(=O)c1ccc2cc([125I])ccc2c1.Cl", "Ratio": 2.57}
{"structure-smiles-string": "CCN(CC)CCNC(=O)c1cc2cc([125I])ccc2[nH]1.Cl", "Ratio": 2.95}
{"structure-smiles-string": "CCN(CC)CCNC(=O)c1ccc([125I])nc1.Cl.Cl", "Ratio": 2.34}
{"structure-smiles-string": "CCN(CC)CCNC(=O)c1nc2cc([125I])ccc2[nH]1.Cl.Cl", "Ratio": 4.31}
{"structure-smiles-string": "CCN(CC)CCNC(=O)c1cc2cc([125I])ccc2o1.Cl", "Ratio": 5.9}
{"structure-smiles-string": "CCN(CC)CCNC(=O)c1ccc2cncc([125I])c2n1.Cl.Cl", "Ratio": 7.41}
{"structure-smiles-string": "CCN(CC)CCNC(=O)c1c[nH]c2ccc([125I])cc2c1=O.Cl.Cl", "Ratio": 4.6}
{"structure-smiles-string": "CCN(CC)CCNC(=O)c1ccc2cc([125I])ccc2n1.Cl.Cl", "Ratio": 4.54}

###

assay: Binding affinity to melanin in water; design: concentration or dose not given beside the values; details: tested as the 125I-labelled form
value-kind: Activity (%)

{"structure-smiles-string": "CCN(CC)CCNC(=O)c1ccc2cc(I)ccc2c1", "value-kind": "Activity", "readout-number": 80.8}
{"structure-smiles-string": "CCN(CC)CCNC(=O)c1ccc2cc(I)ccc2n1", "value-kind": "Activity", "readout-number": 87.4}
{"structure-smiles-string": "CCN(CC)CCNC(=O)c1cc2cc(I)ccc2[nH]1", "value-kind": "Activity", "readout-number": 79.8}
{"structure-smiles-string": "CCN(CC)CCNC(=O)c1cnc2cc(I)ccc2n1", "value-kind": "Activity", "readout-number": 67.4}
{"structure-smiles-string": "CCN(CC)CCNC(=O)c1ccc(I)nc1", "value-kind": "Activity", "readout-number": 28.1}
{"structure-smiles-string": "CCN(CC)CCNC(=O)c1cc2c(I)cccc2s1", "value-kind": "Activity", "readout-number": 87.6}
{"structure-smiles-string": "CCN(CC)CCNC(=O)c1c[nH]c2ccc(I)cc2c1=O", "value-kind": "Activity", "readout-number": 86.7}
{"structure-smiles-string": "CCN(CC)CCNC(=O)c1cc2c(I)cccc2cn1", "value-kind": "Activity", "readout-number": 87}
{"structure-smiles-string": "CCN(CC)CCNC(=O)c1cn2cc(I)ccc2n1", "value-kind": "Activity", "readout-number": 75.3}
{"structure-smiles-string": "CCN(CC)CCNC(=O)c1ccc2cncc(I)c2n1", "value-kind": "Activity", "readout-number": 44.8}
{"structure-smiles-string": "CCN(CC)CCNC(=O)c1nc2cc(I)ccc2[nH]1", "value-kind": "Activity", "readout-number": 84.5}
{"structure-smiles-string": "CCN(CC)CCNC(=O)c1cc2cc(I)ccc2o1", "value-kind": "Activity", "readout-number": 87}
